# system_under_test: Prostaglandin D2 receptor (Homo sapiens, UniProt Q13258)
# Sequence (Q13258 whole entry): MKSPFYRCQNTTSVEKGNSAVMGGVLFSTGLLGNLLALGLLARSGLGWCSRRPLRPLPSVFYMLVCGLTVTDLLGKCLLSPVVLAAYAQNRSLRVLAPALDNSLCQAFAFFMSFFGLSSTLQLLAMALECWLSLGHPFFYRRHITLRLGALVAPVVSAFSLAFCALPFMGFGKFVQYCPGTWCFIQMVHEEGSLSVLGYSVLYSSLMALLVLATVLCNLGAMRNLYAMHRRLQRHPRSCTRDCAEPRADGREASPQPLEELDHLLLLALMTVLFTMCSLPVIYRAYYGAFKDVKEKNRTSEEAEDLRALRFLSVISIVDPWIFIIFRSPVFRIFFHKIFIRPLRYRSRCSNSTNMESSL
# assay_name: Prostaglandin D2 receptor antagonist activity, evaluated by inhibition of [3H]PGD-2 binding to human platelet membranes
outcome_measure: IC50 (nM)

Field: example entries. Status: answers known.
COc1cc(C(=O)N[C@@H]2[C@@H](C/C=C/CCCC(=O)O)C[C@H]3C[C@@H]2C3(C)C)cs1 = 520
Cc1scc(C(=O)N[C@@H]2[C@@H](C/C=C/CCCC(=O)O)C[C@H]3C[C@@H]2C3(C)C)c1-c1ccccc1 = 590
CC1(C)[C@H]2C[C@H](C/C=C/CCCC(=O)O)[C@@H](NC(=O)c3c[nH]c4ccccc34)[C@@H]1C2 = 520

(A) CC1(C)[C@H]2C[C@H](C/C=C\CCCC(=O)O)[C@@H](NC(=O)c3ccc(-c4ccccc4)cc3)[C@@H]1C2
(B) COc1ccccc1C(=O)N[C@@H]1[C@@H](C/C=C/CCCC(=O)O)C[C@H]2C[C@@H]1C2(C)C
(C) CC1(C)[C@H]2C[C@H](C/C=C/CCCC(=O)O)[C@@H](NC(=O)c3ccsc3)[C@@H]1C2
# input Put the items in order so that reported IC50 rises from first to last. List the labels according to the requested ordering.
# output A, C, B
(A: 47 nM, C: 1600 nM, B: 4600 nM)

###

# system_under_test: Prostaglandin D2 receptor (Homo sapiens, UniProt Q13258)
# Sequence (Q13258 whole entry): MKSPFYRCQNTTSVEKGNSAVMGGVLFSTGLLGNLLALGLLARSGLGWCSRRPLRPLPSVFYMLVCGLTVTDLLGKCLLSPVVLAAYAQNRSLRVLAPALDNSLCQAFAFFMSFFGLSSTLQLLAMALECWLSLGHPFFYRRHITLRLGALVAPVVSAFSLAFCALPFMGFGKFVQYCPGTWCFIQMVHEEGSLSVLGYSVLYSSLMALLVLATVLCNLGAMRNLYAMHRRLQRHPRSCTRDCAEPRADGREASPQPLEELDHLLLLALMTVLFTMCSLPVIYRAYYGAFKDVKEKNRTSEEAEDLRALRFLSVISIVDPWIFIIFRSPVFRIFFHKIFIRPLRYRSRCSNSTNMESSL
# assay_name: Prostaglandin D2 receptor antagonist activity, evaluated by inhibition of [3H]PGD-2 binding to human platelet membranes
outcome_measure: IC50 (µM)

CC1(C)[C@H]2C[C@H](C/C=C/CCCC(=O)O)[C@@H](NC(=O)c3csc(-c4ccccc4)c3)[C@@H]1C2 = 0.042
Cn1ccc(C(=O)N[C@@H]2[C@@H](C/C=C/CCCC(=O)O)C[C@H]3C[C@@H]2C3(C)C)c1 = 0.42
CC1(C)[C@H]2C[C@H](C/C=C/CCCC(=O)O)[C@@H](NC(=O)c3cc4ccccc4s3)[C@@H]1C2 = 0.019
Cc1cc(C(=O)N[C@@H]2[C@@H](C/C=C/CCCC(=O)O)C[C@H]3C[C@@H]2C3(C)C)cs1 = 0.013
CC1(C)[C@H]2C[C@H](C/C=C/CCCC(=O)O)[C@@H](NC(=O)c3csc4cc(O)ccc34)[C@@H]1C2 = 0.0022

(a) CC1(C)[C@H]2C[C@H](C/C=C/CCCC(=O)O)[C@@H](NC(=O)c3csc4ccc(F)cc34)[C@@H]1C2
(b) CC1(C)[C@H]2C[C@H](NS(=O)(=O)c3ccc(-c4ccccc4)cc3)[C@@H](C/C=C\CCCC(=O)O)[C@@H]1C2
(c) CC1(C)[C@H]2C[C@@H](NC(=O)c3ccc(-c4ccccc4)cc3)[C@H](C/C=C\CCCC(=O)O)[C@@H]1C2
(d) CC1(C)[C@H]2C[C@H](C/C=C/CCCC(=O)O)[C@@H](NC(=O)c3csc4c3CCCC4)[C@@H]1C2
(e) CC1(C)[C@H]2C[C@H](C/C=C/CCCC(=O)NS(C)(=O)=O)[C@@H](NC(=O)c3ccsc3)[C@@H]1C2
# input Reorder: IC50, max to min. Form field (ranking): labels in requested order.
# output e, c, b, d, a
(e: 6 µM, c: 3.6 µM, b: 1.3 µM, d: 0.15 µM, a: 0.00042 µM)

(P) CC1(C)[C@H]2C[C@H](C/C=C/CCCC(=O)O)[C@@H](NC(=O)c3ccc([N+](=O)[O-])cc3)[C@@H]1C2
(Q) CC1(C)[C@H]2C[C@H](C/C=C\CCCC(=O)O)[C@@H](NS(=O)(=O)c3ccc(-c4ccccc4)cc3)[C@@H]1C2
(R) CC1(C)[C@H]2C[C@H](C/C=C/CCCC(=O)O)[C@@H](NC(=O)c3csc4ccc(NS(C)(=O)=O)cc34)[C@@H]1C2
# input Ascending by IC50, please. Submit the labels in the order that the ranking request calls for.
# output Q, P, R

###

# system_under_test: Prostaglandin D2 receptor (Homo sapiens, UniProt Q13258)
# assay_name: Concentration required to inhibit the PGD-2 evoked cAMP formation in human platelets
# Assay type: functional
pIC50: −log10 of the molar value.
outcome_measure: pIC50

Known results for compounds:
COc1cc(C(=O)N[C@@H]2[C@@H](C/C=C/CCCC(=O)O)C[C@H]3C[C@@H]2C3(C)C)cs1 = 7.25
CC1(C)[C@H]2C[C@H](C/C=C/CCCC(=O)O)[C@@H](NC(=O)c3csc4ccccc34)[C@@H]1C2 = 7.66
CC1(C)[C@H]2C[C@H](C/C=C/CCCC(=O)O)[C@@H](NC(=O)c3cccs3)[C@@H]1C2 = 7.82

(A) CC1(C)[C@H]2C[C@H](C/C=C/CCCC(=O)O)[C@@H](NC(=O)c3c[nH]c4ccccc34)[C@@H]1C2
(B) Cc1sccc1C(=O)N[C@@H]1[C@@H](C/C=C/CCCC(=O)O)C[C@H]2C[C@@H]1C2(C)C
(C) CC1(C)[C@H]2C[C@H](C/C=C/CCCC(=O)O)[C@@H](NC(=O)c3csc4ccc(O)cc34)[C@@H]1C2
(D) CC1(C)[C@H]2C[C@H](C/C=C/CCCC(=O)NS(C)(=O)=O)[C@@H](NC(=O)c3ccsc3)[C@@H]1C2
(E) CC1(C)[C@H]2C[C@H](C/C=C/CCCC(=O)O)[C@@H](NC(=O)c3ccsc3)[C@@H]1C2
# input Exam item: list the entries in increasing order of pIC50. // respond by listing labels in the order requested
# output D, A, E, B, C

###

# system_under_test: Prostaglandin D2 receptor (Homo sapiens, UniProt Q13258)
# assay_name: Prostaglandin D2 receptor antagonist activity, evaluated by inhibition of [3H]PGD-2 binding to human platelet membranes
outcome_measure: IC50

Reference set, count: 2
CC1(C)[C@H]2C[C@H](C/C=C/CCCC(=O)O)[C@@H](NC(=O)C3CCCCC3)[C@@H]1C2 = > 10 µM
CN(C(=O)c1ccccc1)[C@@H]1[C@@H](C/C=C/CCCC(=O)O)C[C@H]2C[C@@H]1C2(C)C = > 10 µM

# input Need IC50 of CN(C(=O)c1ccsc1)[C@@H]1[C@@H](C/C=C/CCCC(=O)O)C[C@H]2C[C@@H]1C2(C)C , thanks.
# output > 10 µM

###

# system_under_test: Prostaglandin D2 receptor (Homo sapiens)
# assay_name: Concentration required to inhibit the PGD-2 evoked cAMP formation in human platelets
# Format: functional
outcome_measure: IC50

A selection of reference data follows.
CC1(C)[C@H]2C[C@H](NC(=O)c3ccc(-c4ccccc4)cc3)[C@@H](C/C=C\CCCC(=O)O)[C@@H]1C2 = > 1000 nM
CC1(C)[C@H]2C[C@H](CC(=O)CCCCC(=O)O)[C@@H](NC(=O)c3ccsc3)[C@@H]1C2 = > 1000 nM
CC1(C)[C@H]2C[C@H](C/C=C/CCCC(=O)O)[C@@H](NC(=O)Cc3ccccc3)[C@@H]1C2 = > 1000 nM
CC1(C)[C@H]2C[C@H](NS(=O)(=O)c3ccc(-c4ccccc4)cc3)[C@@H](C/C=C\CCCC(=O)O)[C@@H]1C2 = > 1000 nM
CC1(C)[C@H]2C[C@H](C/C=C/CCCC(=O)O)[C@@H](NC(=O)C3CCCCC3)[C@@H]1C2 = > 1000 nM

# input Fill in: IC50 of CC1(C)[C@H]2C[C@H](C/C=C/CCCC(=O)O)[C@@H](NC(=O)c3ccc4ccccc4c3)[C@@H]1C2 is ___
# output 73 nM

# input Same lookup for CN(C(=O)c1ccccc1)[C@@H]1[C@@H](C/C=C/CCCC(=O)O)C[C@H]2C[C@@H]1C2(C)C , please.
# output > 1000 nM
